From: the supplement of paper PMC10065799

molecular target: Hck (UniProt P08631); assay: phosphorylation enrichment, bacterial display (enrichment ratio); higher = better substrate or ligand; peptides without Tyr show the background;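 further: 11-residue human phosphosite peptides and single-mutation variants displayed on the E. coli surface, counted by deep sequencing, each peptide's frequency after selection divided by its frequency in the unselected input library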;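 further: frequency after pTyr selection over input frequency; kinase dosed for 20-30% of maximal phosphorylation in three min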
Sequence (P08631 whole entry, looked up): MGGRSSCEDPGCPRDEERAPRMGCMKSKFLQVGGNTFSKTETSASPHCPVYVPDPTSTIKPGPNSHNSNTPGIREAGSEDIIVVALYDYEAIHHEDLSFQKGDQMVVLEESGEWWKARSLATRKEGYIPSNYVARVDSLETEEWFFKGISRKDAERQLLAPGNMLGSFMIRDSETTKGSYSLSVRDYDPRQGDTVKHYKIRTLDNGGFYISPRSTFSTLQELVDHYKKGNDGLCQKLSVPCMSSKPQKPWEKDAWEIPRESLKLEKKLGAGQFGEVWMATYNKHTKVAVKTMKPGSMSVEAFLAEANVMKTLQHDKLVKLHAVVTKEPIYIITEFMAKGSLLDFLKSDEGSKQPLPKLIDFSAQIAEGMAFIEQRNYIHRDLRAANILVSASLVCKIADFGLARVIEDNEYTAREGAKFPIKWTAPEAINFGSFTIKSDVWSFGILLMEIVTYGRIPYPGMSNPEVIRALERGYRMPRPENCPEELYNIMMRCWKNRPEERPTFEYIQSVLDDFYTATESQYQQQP
Definition: the class of an entry is the range in lower segment: < 0.5; middle segment: ≥ 0.5 and < 0.6; upper segment: ≥ 0.6 that contains its phosphorylation enrichment.

Which bin, given its phosphorylation enrichment, does CSRHFYQLTKL [AR_Y858_R856H] occupy? lower segment

Band assignment needed for MKGEYYRYLAE [YWHAG_Y131_D129E] please. upper segment

Which bin, given its phosphorylation enrichment, does MKVPVYETPAG [PGM5_Y358] occupy? upper segment

Where would LFEDHYLLGTS [ASS1_Y87_R86H_YF] land among the classes by reported phosphorylation enrichment? middle segment

Field: class (phosphorylation enrichment) — entry: WQQQSYLDSGI [CTNNB1_Y30] lower segment

State the band of YMLYQYLKQIE [RPAP3_Y569_D564Y] upper segment

Band for the recorded phosphorylation enrichment of NHYKIHNLCAE [PTEN_Y68_Y68H] ? lower segment

Class label required: VSTAVYKRFPS [BEST1_Y148] lower segment

Form: Item = SLDLSYYHTSS [EMD_Y181_P183H] ; Class = ? middle segment

Consider RSLLQYGGSAN [ANK1_Y624] . To which phosphorylation enrichment class does it belong? upper segment

Please let me know in which category the item TGNGFYFRVFS [MYBPC3_Y1136_I1131T_YF] belongs. lower segment

Looking at LNEVGYDDIGG [VCP_Y203] , which class would you pick? upper segment

Class label required: ATRKAYGQALA [TKT_Y321] lower segment

Assign a category based on measured phosphorylation enrichment for VITDFYVDMKF [MPP4_Y567_YF] and give only the class name. upper segment

Quick check: band for KAEQLYIGVTV [EFHC2_Y509_E507Q] upper segment

Form: Item = FPKARYHWLVL [APTX_Y214_YF] ; Class = ? middle segment

Record NFATLHLKIYH [PDE6B_Y219_Y219H] — which class? lower segment

Into which category would you place RIILLYIFLKN [STXBP1_Y411] ? lower segment

Which of the defined bands does the recorded phosphorylation enrichment of FGLTLYPNSRE [MEP1A_Y472_V469L] sit within? lower segment

Given IFQASYFRRGD [LTK_Y676_R673Q_YF] , name the class its phosphorylation enrichment places it in. middle segment

Looking at FSKRIYKGMVA [PCDH15_Y931] , which class would you pick? lower segment

# bin label for ALWYIYLHTRS [ENG_Y614_S615L] lower segment

Given TFINKYQGKLF [HGD_Y249_V245F] , name the class its phosphorylation enrichment places it in. lower segment

Consider AALLNYKAGRD [GRIN2A_Y737_V734L] . To which phosphorylation enrichment class does it belong? middle segment

The entry to classify is KVPCHYDDPGK [FOXG1_Y246_R244C] ; which class holds it? upper segment

Which band does PYSEPYADYGG [APBA1_Y187] fall in? upper segment

// return the class label for RLLRGHDQSAY [HLA-C_Y137_Y137H] middle segment

Textbook exercise: identify the category of the sequence given here, RPSELYYSKIG [SMG1_Y2253] , according to its measured value. upper segment

Which class is correct for the following sequence? EWKQKYEESQS [MYH6_Y1462] middle segment

Exercise: read the entry INITIYGKTFR [EFHC1_Y177] and state which class it falls under. middle segment

Using the reported phosphorylation enrichment, which band applies to IGLHAYGDQYR [IDH1_Y135_R132L] ? middle segment

Would you mind sorting KLYRVYCDMNT [FGB_Y269_P265L] into the appropriate category? upper segment

Form field 'band' for PSVVAYPKRSQ [MARK3_Y432] middle segment

Record VERIGYDFIPT [CBS_Y308_G305R] — which class? middle segment

Which class holds STKELYEKYMI ? upper segment

Assign a bin to ERLWDCGMSSS [F8_Y1728_Y1728C] lower segment

Kindly identify the class of MFNPCYGLFEF [NEDD4L_Y680_Y679C_YF] . upper segment

Could you tell me which band SLNEGYAKDFD [FBP1_Y216_R218K] belongs to? middle segment

Which bin, given its phosphorylation enrichment, does AAGGRYFGLVG [HARS1_Y363_D364Y_YF] occupy? lower segment

Band for INSLKYAYNVS [EIF2B5_Y583_I587V] ? lower segment

Exam item: assign KKILCYIQGGS [HYDIN_Y4610_N4606K] to the correct category. middle segment

Tag the class for RQEEEYKRFSE [SFSWAP_Y133_L136F] upper segment

Which category fits this record: MTRDIYRASFF [ALK_Y1278_A1274T_YF] upper segment

Determine which band this sequence sits in: SGSFRYGSSCE [SELE_Y390] lower segment

For the record EREYKYGAHNH [OAT_Y50_Y55H] , report the class its phosphorylation enrichment corresponds to. lower segment

Tag the class for AGRSGYDNREI [BCL2_Y9_T7S] lower segment

Hey, which category is SVTCTYSRALN [TP53_Y126_P128R] in, do you know? middle segment

// return the class label for ICTVDYLLRLQ [RYR1_Y3921] middle segment

Note: place this sequence into its band. Item: YLENYYDLKKD [MMP3_Y42] upper segment

Assign a category based on measured phosphorylation enrichment for FTGVEYSSCDT [EPHA3_Y937] and give only the class name. middle segment

Band assignment needed for PIFLFYLMDLS [ITGB2_Y131_D128Y_YF] please. upper segment

Class? Entry: ETDTRYFDEEF [AKT1_Y437] upper segment

Hi, small favor: classify DRLASSLDKVR [KRT10_Y160_Y160S] by its phosphorylation enrichment when you get a moment. lower segment

Classify this sequence: VTQEPYELYCE [CBL_Y368_Q367P] upper segment
